The values you see were collected from patent EP0938471B1.

target: MMP-9 (Homo sapiens, UniProt P14780); test: MMP-9 inhibition (thiopeptide or fluorescent peptide substrate assay); type: biochemical; details: read-out: MMP-9 IC50
Sequence (P14780 94-707): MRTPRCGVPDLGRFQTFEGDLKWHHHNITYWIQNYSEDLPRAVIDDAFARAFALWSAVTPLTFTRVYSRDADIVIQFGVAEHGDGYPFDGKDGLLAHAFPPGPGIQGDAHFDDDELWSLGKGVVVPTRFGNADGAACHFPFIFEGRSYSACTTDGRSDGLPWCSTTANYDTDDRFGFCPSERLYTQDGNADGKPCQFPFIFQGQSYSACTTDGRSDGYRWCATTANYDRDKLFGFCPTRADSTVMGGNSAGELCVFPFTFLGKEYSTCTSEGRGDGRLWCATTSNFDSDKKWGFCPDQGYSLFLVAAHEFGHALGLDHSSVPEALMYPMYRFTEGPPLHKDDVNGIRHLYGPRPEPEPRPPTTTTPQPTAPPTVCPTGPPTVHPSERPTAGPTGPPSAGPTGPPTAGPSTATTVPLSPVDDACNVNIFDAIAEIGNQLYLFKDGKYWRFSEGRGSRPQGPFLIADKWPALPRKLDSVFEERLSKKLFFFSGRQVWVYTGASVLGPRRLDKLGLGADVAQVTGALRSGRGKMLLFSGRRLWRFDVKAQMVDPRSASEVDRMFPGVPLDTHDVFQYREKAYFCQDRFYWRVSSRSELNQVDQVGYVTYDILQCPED
pIC50: −log10 of the molar value. Counter-ions that a name gives are not always drawn.
Measured Quantity: pIC50

Example entries begin here.
COc1ccc(S(=O)(=O)N(Cc2cccnc2)c2c(C)cc(-c3cccc(C(F)(F)F)c3)cc2C(=O)NO)cc1 [Example 406, hydrochloride salt] : 8.96
COc1ccc(S(=O)(=O)N(Cc2cccnc2)c2c(C)cc(C=CC(=O)N(C)C)cc2C(=O)NO)cc1 : 8.51
COc1ccc(S(=O)(=O)N(Cc2cccnc2)c2c(C)cc(-c3cccc([N+](=O)[O-])c3)cc2C(=O)NO)cc1 [Example 400, hydrochloride salt] : 8.22
COc1ccc(S(=O)(=O)N(Cc2cccnc2)c2c(C)cc(-c3cccc(C=NO)c3)cc2C(=O)NO)cc1 : 8.22
COc1ccc(S(=O)(=O)N(C)c2c(CN3CCCC3)cc(Br)cc2C(=O)NO)cc1 : 8.08

a = CCN(c1c(C)cc(C)cc1C(=O)NO)S(=O)(=O)c1ccc(OC)cc1
b = COc1ccc(S(=O)(=O)N(Cc2ccccc2Br)c2c(C)cc(C)cc2C(=O)NO)cc1
c = CCN(C(=O)C=Cc1cc(C)c(N(Cc2cccnc2)S(=O)(=O)c2ccc(OC)cc2)c(C(=O)NO)c1)c1ccccc1
d = COc1ccc(S(=O)(=O)N(Cc2cccnc2)c2ccccc2C(=O)NO)cc1
e = CCCCCCCCN(C)C(=O)CCc1cc(C)c(N(C)S(=O)(=O)c2ccc(OC)cc2)c(C(=O)NO)c1
Returns the items ordered by pIC50, from maximum to minimum. Your answer should be the labels, listed in the requested order. c, e, a, b, d

P = Cc1ccc(CN(c2c(C)cccc2C(=O)NO)S(=O)(=O)c2ccc(-c3ccccn3)s2)cc1C
Q = COc1ccc(S(=O)(=O)N(Cc2ccccc2)c2c(C#N)cc(C)cc2C(=O)NO)cc1
Hi! Which is lower in terms of pIC50, the first one P or the second one Q ? Bench note: the answer is the label of the chosen record. P

I = COc1ccc(S(=O)(=O)N(C)c2c(C)cc(C#Cc3ccc(-c4ccccc4)cc3)cc2C(=O)NO)cc1
II = COc1ccc(S(=O)(=O)N(C)c2c(C)cc(CCc3ccc(-c4ccccc4)cc3)cc2C(=O)NO)cc1
Hi! Which is lower in terms of pIC50, the first one I or the second one II ? Bench note: the answer is the label of the chosen record. I
(I: 7.21, II: 7.55)
